Reference source: patent US20160264649A1

Entries and their IC50 (neutralization)
# TEST SYSTEM: HIV-1 Env of isolate MGRM-D-013 (subtype D) (HIV-1)
# ASSAY: cell-based or functional assay

Some entries whose results are on file:
PGT-131 (antibody, V domains shown) VH: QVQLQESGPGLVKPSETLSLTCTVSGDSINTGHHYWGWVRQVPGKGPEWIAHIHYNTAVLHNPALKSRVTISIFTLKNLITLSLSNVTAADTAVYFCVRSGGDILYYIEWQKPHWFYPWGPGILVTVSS VL: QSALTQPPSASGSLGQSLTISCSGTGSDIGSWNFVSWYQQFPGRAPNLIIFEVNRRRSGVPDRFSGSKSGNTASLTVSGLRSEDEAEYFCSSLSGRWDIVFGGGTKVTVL : 4.14 µg/mL
PGT-127 (antibody, V domains shown) VH: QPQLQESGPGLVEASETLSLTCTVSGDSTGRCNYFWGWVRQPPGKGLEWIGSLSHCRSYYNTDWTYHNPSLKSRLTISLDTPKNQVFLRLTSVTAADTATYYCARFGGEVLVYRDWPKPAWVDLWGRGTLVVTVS VL: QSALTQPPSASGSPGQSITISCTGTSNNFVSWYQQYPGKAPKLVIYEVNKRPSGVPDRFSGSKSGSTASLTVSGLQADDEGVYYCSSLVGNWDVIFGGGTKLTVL : > 50 µg/mL

In: Tell me the measured IC50 (neutralization) of PGT-135 (antibody, V domains shown) VH: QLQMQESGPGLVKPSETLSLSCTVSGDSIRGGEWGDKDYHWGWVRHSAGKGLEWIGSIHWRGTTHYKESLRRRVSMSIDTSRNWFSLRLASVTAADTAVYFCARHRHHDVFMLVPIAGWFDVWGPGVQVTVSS VL: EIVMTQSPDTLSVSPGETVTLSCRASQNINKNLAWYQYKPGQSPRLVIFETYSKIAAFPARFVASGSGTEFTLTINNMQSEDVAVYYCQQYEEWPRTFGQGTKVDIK , please.
Out: > 50 µg/mL
